The measured values listed here are drawn from the supplement of paper PMC12494721.

- Test system: Escherichia coli IAI1
- measurement-protocol: growth (OD595) fold change vs plate DMSO controls (fold change (ratio)); higher = more growth
- study-conditions: 20 µM; incubation time: 27 h, anaerobic, 37 °C
Measured growth, listed per entry.
Could you respond with only the numeric value?

Illustrative cases are given below, each with its answer.
Input line: Provide measured growth value, entry: O=C(O)CNCP(=O)(O)O
Output line: 1.02

Input line: Report growth, nothing else, for this molecule: COP(=O)(NC(C)=O)SC (configuration not stated)
Output line: 0.98

Input line: In one line, give reported growth of the entry CC(Oc1ccc(Oc2nc3ccc(Cl)cc3o2)cc1)C(=O)O (racemic) .
Output line: 1.04

***
Input line: Report growth, nothing else, for this molecule: COc1ncc(F)c2nc(S(=O)(=O)Nc3c(F)cccc3F)nn12
Output line: 0.984

Input line: Return value of growth for input CC(=O)NC1CCSC1=O (configuration not stated) [Citiolone] , no commentary.
Output line: 0.993

Input line: Look up growth of CCN(CC)c1nc(C)cc(OP(=S)(OC)OC)n1 and report it.
Output line: 1.01

Input line: Identify the reported growth for the following entry. CCCN(CCC)N=O [NDPA (N-nitrosodipropylamine)]
Output line: 0.974

###

- Test system: Klebsiella aerogenes DSM 30053
- measurement-protocol: fold change of Putrescine concentration vs plate DMSO controls (fold change (ratio)); higher = more amine produced, active = hit call of the paper (significant change in both replicates, either direction)
- study-conditions: 20 µM; incubation time: 27 h, anaerobic, 37 °C
Short version: fold change of Putrescine concentration at least 1 is Fulfilled, less is Not fulfilled.

Input line: Is it the case that CNC(C)(C)Cc1ccccc1 [Mephentermine hemisulfate] has fold change of Putrescine concentration reaching or exceeding 1?
Output line: Not fulfilled

***
Input line: Decide: fold change of Putrescine concentration of CS(=O)(=O)c1ccc(C(=O)C2C(=O)CCCC2=O)c([N+](=O)[O-])c1 >= 1?
Output line: Not fulfilled

Input line: Dear colleague, could you confirm whether CCOC(=O)c1cncn1[C@H](C)c1ccccc1 [Etomidate] has fold change of Putrescine concentration at or above 1?
Output line: Fulfilled

###

- Test system: Clostridium sporogenes DSM 1664
- measurement-protocol: fold change of Tryptamine concentration vs plate DMSO controls (fold change (ratio)); higher = more amine produced, active = hit call of the paper (significant change in both replicates, either direction)
- study-conditions: 20 µM; incubation time: 27 h, anaerobic, 37 °C
Classify by measured fold change of Tryptamine concentration: Met if it is equal to or exceeds 1, Not met if it is smaller.

Use these answered entries as a reference point.
Input line: Confirm if fold change of Tryptamine concentration reported for the compound O=S(=O)(c1ccc(O)cc1)c1ccc(O)cc1 is 1 or above.
Output line: Met

Input line: Is fold change of Tryptamine concentration for COP(=S)(OC)SCN1C(=O)c2ccccc2C1=O at or above 1?
Output line: Met

Input line: Quick check, fold change of Tryptamine concentration >= 1? CO/N=C(/C(=O)OC)c1ccccc1CO/N=C(\C)c1cccc(C(F)(F)F)c1
Output line: Not met

---
Input line: # check: fold change of Tryptamine concentration of CSc1nc(NC(C)C)nc(NC(C)C)n1 is greater than or equal to 1
Output line: Not met

Input line: Determine whether measured fold change of Tryptamine concentration meets or exceeds 1 for Fc1ccc(C(OCCN2CCN(CCCc3ccccc3)CC2)c2ccc(F)cc2)cc1
Output line: Not met

Input line: Is the recorded value of fold change of Tryptamine concentration equal to or greater than 1 for this compound? CCc1nn(C)c(C(=O)NCc2ccc(Oc3ccc(C)cc3)cc2)c1Cl
Output line: Not met

Input line: Determine whether this compound has fold change of Tryptamine concentration no lower than 1: C[N+](C)(C)CCCCCCCCCC[N+](C)(C)C [Decamethonium bromide]
Output line: Met

###

- Tested on: Escherichia coli IAI1
- measurement-protocol: fold change of Putrescine concentration vs plate DMSO controls (fold change (ratio)); higher = more amine produced, active = hit call of the paper (significant change in both replicates, either direction)
- study-conditions: 20 µM; incubation time: 27 h, anaerobic, 37 °C
Counter-ions that a name gives are not always drawn.
test-readout: fold change of Putrescine concentration
Could you respond with only the numeric value?

Would you please look over these solved cases?
Input line: For Escherichia coli IAI1, give fold change of Putrescine concentration of the listed molecule: CC(Cc1ccc(O)cc1)NCC(O)c1cc(O)cc(O)c1 (stereo not given) [Fenoterol hydrobromide]
Output line: 1.02

Input line: Send back Escherichia coli IAI1 fold change of Putrescine concentration of COP(=O)(NC(C)=O)SC (stereo not given) only.
Output line: 1.02

Input line: Output reported fold change of Putrescine concentration of the molecule CS(=O)(=O)c1cc(C(F)(F)F)ccc1C(=O)c1cnoc1C1CC1 on Escherichia coli IAI1.
Output line: 0.958

Continuing:
Input line: Using Escherichia coli IAI1 as the test system, report measured fold change of Putrescine concentration of COC(=O)NC(=S)Nc1ccccc1NC(=S)NC(=O)OC .
Output line: 0.954

Input line: Enter measured fold change of Putrescine concentration, system Escherichia coli IAI1, for the molecule shown: CCC(=O)O[C@@](Cc1ccccc1)(c1ccccc1)[C@@H](C)CN(C)C [Levopropoxyphene napsylate]
Output line: 1.03

###

- System: Escherichia coli IAI1
- measurement-protocol: fold change of Putrescine concentration vs plate DMSO controls (fold change (ratio)); higher = more amine produced, active = hit call of the paper (significant change in both replicates, either direction)
- study-conditions: 20 µM; incubation time: 27 h, anaerobic, 37 °C
test-readout: fold change of Putrescine concentration

Here is how some compounds turned out for fold change of Putrescine concentration.
Input line: Indicate its recorded fold change of Putrescine concentration; the compound in question is C#C[C@]1(O)CC[C@H]2[C@@H]3CCC4=CC(=O)CCC4=C3C=C[C@@]21CC
Output line: 0.88 (inactive)

Input line: Supply measured fold change of Putrescine concentration of C[C@]12CCC(=O)C(O)=C1CC[C@@H]1[C@@H]2CC[C@]2(C)C(=O)CC[C@@H]12 in your reply.
Output line: 1.02 (inactive)

More entries:
Input line: State, in one line, measured fold change of Putrescine concentration of Fc1ccc(Oc2ccnc3cc(Cl)cc(Cl)c23)cc1
Output line: 1.05 (inactive)

Input line: Provide one value: measured fold change of Putrescine concentration of CNC(=O)c1cc(C#N)cc(C)c1NC(=O)c1cc(Br)nn1-c1ncccc1Cl
Output line: 0.935 (inactive)

Input line: Name the recorded fold change of Putrescine concentration of the compound listed here: O=c1[nH]c2ccccc2n1C1CCN(CCCC(c2ccc(F)cc2)c2ccc(F)cc2)CC1 [Pimozide]
Output line: 0.979 (inactive)

Input line: Provide one value: measured fold change of Putrescine concentration of O=C1C2(Cl)C3(Cl)C4(Cl)C(Cl)(Cl)C5(Cl)C3(Cl)C1(Cl)C5(Cl)C24Cl (stereo not drawn)
Output line: 1.05 (inactive)

Input line: Provide fold change of Putrescine concentration value for the following compound: O=C(O)C(F)(F)C(F)(F)C(F)(F)C(F)(F)C(F)(F)C(F)(F)C(F)(F)F
Output line: 1.03 (inactive)

Input line: State, in one line, measured fold change of Putrescine concentration of O=C(NC(=O)c1c(F)cccc1F)Nc1ccc(OC(F)(F)C(F)OC(F)(F)F)c(Cl)c1 (stereo not drawn)
Output line: 1.01 (inactive)

###

- Tested on: Ruminococcus gnavus DSM 108212
- measurement-protocol: fold change of 2-Phenylethylamine concentration vs plate DMSO controls (fold change (ratio)); higher = more amine produced, active = hit call of the paper (significant change in both replicates, either direction)
- study-conditions: 20 µM; incubation time: 27 h, anaerobic, 37 °C
Counter-ions that a name gives are not always drawn.
Think of 1 as a floor: if fold change of 2-Phenylethylamine concentration stands on it or above, it is MET; beneath it, NOT MET.

Illustrative cases are given below, each with its answer.
Input line: Tell me whether fold change of 2-Phenylethylamine concentration is at least 1 here: COC(=O)N(OC)c1ccccc1COc1ccn(-c2ccc(Cl)cc2)n1
Output line: NOT MET

Input line: Check if fold change of 2-Phenylethylamine concentration >= 1 (inclusive). Item: O=[N+]([O-])O[C@@H]1CO[C@H]2[C@@H]1OC[C@@H]2O [Isosorbide mononitrate]
Output line: NOT MET

Input line: Confirm if fold change of 2-Phenylethylamine concentration reported for the molecule CN(C)[C@@H]1C(=O)C(C(N)=O)=C(O)[C@@]2(O)C(=O)C3=C(O)c4c(O)cccc4[C@@](C)(O)[C@H]3C[C@@H]12 [Tetracycline hydrochloride] is 1 or above.
Output line: NOT MET

Input line: Is the recorded value of fold change of 2-Phenylethylamine concentration equal to or greater than 1 for this molecule? Cc1cc(C2CC2)nc(Nc2ccccc2)n1
Output line: MET

Input line: Reported fold change of 2-Phenylethylamine concentration at or above 1? C[N+]1([O-])[C@@H]2C[C@@H](OC(=O)[C@H](CO)c3ccccc3)C[C@H]1[C@@H]1O[C@@H]12 (some centres undefined) [Scopolamin-N-oxide hydrobromide]
Output line: MET

---
Input line: Please indicate if the recorded fold change of 2-Phenylethylamine concentration for COC(=O)Nc1nc2ccccc2[nH]1 meets or exceeds 1.
Output line: NOT MET
